target: T1, mucin domain-deleted Sudan GP (GPdMuc) (Sudan virus (SUDV), UniProt Q7T9D9 33-632); assay: ELISA on coated GP
T1 construct: also called Sudan GPdMuc; GP(S)dMuc
metric: EC50

- antibody 335S (antibody, V domains shown) VH: EVQLVESGGGVVQPGRSLRLSCAASGFSFSNYAMHWVRQAPGKGLEWVAVTWYDGSSKYHADSVKGRFTISRDNSKNTLYLQMNSLRAEDTAVYYCARWGMGIVASPGNVLNYYYFMDVWGQGTTVIVSS VL: SYELTQPPSVSVSPGQTARITCSGNPLPKKHTYWYQQKPGQAPVLMIYKDSERPSRIPERFSGSSSGTTVTLTISGVQAEDEADYYCQSADSTGIVVFGGGTKLTVL: 0.02 µg/mL
- antibody 338S (antibody, V domains shown) VH: EVQLVESGGGVVQPGRSLRLSCAASGFTFSQYGMHWVRQAPGKGLECVAVIWFDGSKKYYGDSVKGRFTISRDNSKNTLYLQMNSLRAEDTAVYFCARESLYYYDSGGHYYERGRIDYWGQGTLVTVSS VL: DIQMTQSPSSLSASVGDRVTITCRASQDISNFLAWFQQKPGKAPKSLIYAASSLLSGVPSKFSGSGSGTDFTLTISSLQPEDFATYYCQQYNSYPPTFGQGTKLEIK: 0.02 µg/mL

Exercise: So what does the record say about EC50 for antibody 382S (antibody, V domains shown) VH: QVQLVQSGAEVKKPGSSVKVSCKASGGTFSNYGISWVRQAPGQGLEWMGRNIPIIGIANYAQKFQDRVTITADKSTSTVFMELRSLRYEDTAVYYCARDPLAARRGNWFDPWGQGTLVTVSS VL: DIQMTQSPSTLSASVGDRVTITCRASQSVSSWLAWYQQKPGKAPKLLIYDASTLQSGVPSRFSGSGSGTEFTLTISSLQPDDFATYYCQQYNSYSYTFGQGTKLEIK ?
Key: 0.26 µg/mL
